Biological target: hMAO-B (Homo sapiens, UniProt P27338)
Construct: purchased Sigma Aldrich
Sequence (P27338 whole entry): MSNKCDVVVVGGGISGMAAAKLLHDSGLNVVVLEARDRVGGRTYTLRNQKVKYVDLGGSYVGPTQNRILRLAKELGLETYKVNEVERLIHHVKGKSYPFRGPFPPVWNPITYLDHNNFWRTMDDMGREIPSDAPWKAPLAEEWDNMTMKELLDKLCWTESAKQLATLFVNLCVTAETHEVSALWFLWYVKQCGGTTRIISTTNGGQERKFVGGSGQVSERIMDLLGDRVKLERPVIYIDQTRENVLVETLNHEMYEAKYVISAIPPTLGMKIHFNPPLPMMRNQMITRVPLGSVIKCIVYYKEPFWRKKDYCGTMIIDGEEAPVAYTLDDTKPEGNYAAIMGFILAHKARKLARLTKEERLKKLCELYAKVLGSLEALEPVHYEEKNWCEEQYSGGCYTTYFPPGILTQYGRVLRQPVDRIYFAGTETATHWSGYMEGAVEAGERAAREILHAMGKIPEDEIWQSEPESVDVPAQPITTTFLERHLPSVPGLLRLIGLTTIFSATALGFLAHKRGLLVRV
Test: Inhibition of hMAO-B (fluorimetric detection of 4-hydroxyquinoline)
Format: biochemical
Conditions: ni = no inhibition
Could you label it y if measured inhibition at 10 µM is 20% or higher, and n otherwise?

In [3]: df
Out[3]:
                                   molecule  class_name
0      COc1cc(/C=C/C(=O)NO)ccc1OCCCN1CCCCC1           y
1  C#CCN(O)C(=O)/C=C/c1ccc(OCCCN2CCCCC2)c(OC)c1           n
2  C#CCN(O)C(=O)c1ccccc1 [Compound 16, N-Hydroxy-N-(prop-2-yn-1-yl)benzamide]           n
3     COc1cc(/C=C/C(=O)NO)ccc1OCCCCN1CCCCC1           n
4       COc1cc(/C=C/C(=O)NO)ccc1OCCN1CCCCC1           y
5  O=C(NO)c1ccccc1 [Compound 15, N-Hydroxybenzamide]           n

---

Measured IC50 by item
Biological target: UniProt P22303
attribute_measured: IC50 (µM)

In [3]: df
Out[3]:
                              smiles_string  attribute_measured  observed_result
0  C#CCN(O)C(=O)/C=C/c1ccc(OCCCCN2CCCCC2)c(OC)c1                IC50              7.2
1  C#CCN(O)C(=O)/C=C/c1ccc(OCCN2CCCCC2)c(OC)c1                IC50             2.63
2     COc1cc(/C=C/C(=O)NO)ccc1OCCCCN1CCCCC1                IC50             6.58

---

Biological target: hMAO-A (Homo sapiens, UniProt P21397)
Construct: purchased Sigma Aldrich
Sequence (P21397 whole entry): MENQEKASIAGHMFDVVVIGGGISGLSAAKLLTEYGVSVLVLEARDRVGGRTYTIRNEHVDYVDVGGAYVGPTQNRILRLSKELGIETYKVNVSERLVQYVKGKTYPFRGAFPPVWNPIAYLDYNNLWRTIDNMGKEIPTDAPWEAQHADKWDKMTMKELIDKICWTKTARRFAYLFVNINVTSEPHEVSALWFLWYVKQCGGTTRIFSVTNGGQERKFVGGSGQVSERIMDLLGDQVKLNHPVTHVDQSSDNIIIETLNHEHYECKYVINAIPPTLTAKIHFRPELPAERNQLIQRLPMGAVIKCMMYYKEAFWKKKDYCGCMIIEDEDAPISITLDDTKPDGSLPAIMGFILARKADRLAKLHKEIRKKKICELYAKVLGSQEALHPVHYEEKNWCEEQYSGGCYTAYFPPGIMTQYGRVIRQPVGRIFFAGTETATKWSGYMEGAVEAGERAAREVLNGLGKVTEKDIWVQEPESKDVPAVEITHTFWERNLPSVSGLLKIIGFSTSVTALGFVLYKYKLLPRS
Assay: Inhibition of hMAO-A (fluorimetric detection of 4-hydroxyquinoline)
Format: biochemical
Details: ni = no inhibition
Could you label it T if measured inhibition at 10 µM is 20% or higher, and F otherwise?

In [3]: df
Out[3]:
                                   molecule  class_name
0  C#CCN(O)C(=O)/C=C/c1ccc(OCCCN2CCCCC2)c(OC)c1 [Compound 5]           T
1  C#CCN(O)C(=O)/C=C/c1ccc(OCCN2CCCCC2)c(OC)c1 [Compound 4]           T
2  COc1cc(/C=C/C(=O)NO)ccc1OCCCCN1CCCCC1 [Compound 3]           F
3  COc1cc(/C=C/C(=O)NO)ccc1OCCCN1CCCCC1 [Compound 2]           F
4  O=C(NO)c1ccccc1 [Compound 15, N-Hydroxybenzamide]           F
5  C#CCN(O)C(=O)c1ccccc1 [Compound 16, N-Hydroxy-N-(prop-2-yn-1-yl)benzamide]           F

---

Target: hAChE (Homo sapiens)
Construct: purchased Sigma Aldrich
Sequence (P22303 32-614): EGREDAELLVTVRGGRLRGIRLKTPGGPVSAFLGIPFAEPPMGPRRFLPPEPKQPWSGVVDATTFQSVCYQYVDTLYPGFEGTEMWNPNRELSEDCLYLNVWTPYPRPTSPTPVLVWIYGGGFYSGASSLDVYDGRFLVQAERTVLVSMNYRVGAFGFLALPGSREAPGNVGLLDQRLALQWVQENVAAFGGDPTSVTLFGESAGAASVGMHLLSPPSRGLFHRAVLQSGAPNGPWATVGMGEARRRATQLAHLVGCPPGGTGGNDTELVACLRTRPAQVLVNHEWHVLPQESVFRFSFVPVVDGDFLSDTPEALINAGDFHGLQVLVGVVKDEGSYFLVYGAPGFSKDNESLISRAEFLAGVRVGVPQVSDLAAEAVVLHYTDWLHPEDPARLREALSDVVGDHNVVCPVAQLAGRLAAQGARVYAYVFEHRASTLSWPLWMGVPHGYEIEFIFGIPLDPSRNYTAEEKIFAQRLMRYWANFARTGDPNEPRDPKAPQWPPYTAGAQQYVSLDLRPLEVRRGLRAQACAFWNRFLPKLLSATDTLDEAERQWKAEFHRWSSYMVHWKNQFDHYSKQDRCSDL
Test: Inhibition of hAChE (Ellman spectrophotometric assay)
Type: biochemical
Settings: inhibition at 10 µM
attribute_measured: hAChE % @ 10 µM (%)

                                   compound  attribute_measured  observed_result
0  O=C(NO)c1ccccc1 [Compound 15, N-Hydroxybenzamide]     hAChE % @ 10 µM               58
1  COc1cc(/C=C/C(=O)NO)ccc1OCCCN1CCCCC1 [Compound 2]     hAChE % @ 10 µM               42
2  C#CCN(O)C(=O)c1ccccc1 [Compound 16, N-Hydroxy-N-(prop-2-yn-1-yl)benzamide]     hAChE % @ 10 µM               40
3  COc1cc(/C=C/C(=O)NO)ccc1OCCN1CCCCC1 [Compound 1]     hAChE % @ 10 µM               51
4  C#CCN(O)C(=O)/C=C/c1ccc(OCCCN2CCCCC2)c(OC)c1 [Compound 5]     hAChE % @ 10 µM               41
